Property: glass transition temperature; scope: individual compounds

>  <compound>
*ON(C(F)(F)F)C(F)(F)C(*)(F)F (repeat unit)

>  <unit of measure>
°C

>  <glass transition temperature>
-46.00

$$$$
>  <compound>
*CCC(C)CCC(=O)S* (repeat unit)

>  <unit of measure>
°C

>  <glass transition temperature>
-50.00

$$$$
>  <compound>
*CC(*)(F)C(=O)OCCC (repeat unit)

>  <unit of measure>
°C

>  <glass transition temperature>
62.00

$$$$

###

Respond with satisfied for glass transition temperature values of 100 °C and above, not satisfied for values below.

>  <compound>
*Nc1cccc(NC(=O)c2cc(NC(=O)C(CCSC)N3C(=O)c4ccccc4C3=O)cc(C(*)=O)c2)c1 (repeat unit)

>  <class assignment>
satisfied

$$$$
>  <compound>
*O[Si](C)(C)CCC/N=C/c1cc(Cc2ccc(O)c(/C=N/CCC[Si](*)(C)C)c2)ccc1O (repeat unit)

>  <class assignment>
not satisfied

$$$$
>  <compound>
*CC(CSCC)O* (repeat unit)

>  <class assignment>
not satisfied

$$$$
>  <compound>
*Nc1ccc(C(C)(C)c2ccc(NC(=O)c3cc(NC(=O)c4ccccc4)cc(C(*)=O)c3)cc2)cc1 (repeat unit)

>  <class assignment>
satisfied

$$$$
>  <compound>
*NC(C)CC(*)=O (repeat unit)

>  <class assignment>
satisfied

$$$$
>  <compound>
*/C=C/C(C)C(*)C(=O)OC (repeat unit)

>  <class assignment>
not satisfied

$$$$
>  <compound>
*c1ccc2c(c1)C(=O)N(c1cccc(C(c3ccccc3)(c3cccc(N4C(=O)c5ccc(C(*)(C(F)(F)F)C(F)(F)F)cc5C4=O)c3)C(F)(F)F)c1)C2=O (repeat unit)

>  <class assignment>
satisfied

$$$$
>  <compound>
*c1cccc(C(O[Si](C)(C)O[Si](C)(C)O[Si](C)(C)C)c2cccc(N3C(=O)c4ccc(Oc5ccc6c(c5)C(=O)N(*)C6=O)cc4C3=O)c2)c1 (repeat unit)

>  <class assignment>
satisfied

$$$$
>  <compound>
*CC(C)(CO*)COCCC#N (repeat unit)

>  <class assignment>
not satisfied

$$$$
>  <compound>
*Oc1c(Br)cc(*)cc1Br (repeat unit)

>  <class assignment>
satisfied

$$$$
>  <compound>
*[O][Ca][O]C(=O)c1ccccc1C(=O)OCCCCCOC(=O)Nc1cc(NC(=O)OCCCCCOC(=O)c2ccccc2C(*)=O)ccc1C (repeat unit)

>  <class assignment>
not satisfied

$$$$
>  <compound>
*c1ccc(-c2ccc(N3C(=O)c4ccc(Oc5ccc6c(c5)C(=O)N(*)C6=O)cc4C3=O)cc2C)c(C)c1 (repeat unit)

>  <class assignment>
satisfied

$$$$
>  <compound>
*c1ccc(Oc2ccc(N3C(=O)c4cc(-c5ccc([Si](C)(C)C)cc5)c(-c5cc6c(cc5-c5ccc([Si](C)(C)C)cc5)C(=O)N(*)C6=O)cc4C3=O)cc2)cc1 (repeat unit)

>  <class assignment>
satisfied

$$$$
>  <compound>
*c1ccc(-c2ccc(-c3ccc(-n4c(=O)c5cc6c(=O)n(*)c(=O)c6c(C(F)(F)F)c5c4=O)cc3)cc2)cc1 (repeat unit)

>  <class assignment>
satisfied

$$$$
>  <compound>
*CC/C(=C(/*)c1ccccc1)c1ccccc1 (repeat unit)

>  <class assignment>
satisfied

$$$$
>  <compound>
*c1ccc(Oc2ccc(-c3nc4ccc(Oc5ccc6nc(*)c(-c7ccccc7)nc6c5)cc4nc3-c3ccccc3)cc2)cc1 (repeat unit)

>  <class assignment>
satisfied

$$$$
>  <compound>
*Oc1ccc(C(C)(CC(C)C)c2ccc(OC(*)=S)cc2)cc1 (repeat unit)

>  <class assignment>
satisfied

$$$$
>  <compound>
*CC(*)(C#N)C(=O)OCC (repeat unit)

>  <class assignment>
satisfied

$$$$
>  <compound>
*Oc1ccc(/N=C/C=N/c2ccc(OC(=O)NCCCCCCNC(*)=O)cc2)cc1 (repeat unit)

>  <class assignment>
not satisfied

$$$$
>  <compound>
*c1ccc(N[Se]Nc2ccc(S(*)(=O)=O)cc2)cc1 (repeat unit)

>  <class assignment>
not satisfied

$$$$
>  <compound>
*CC(*)CCI (repeat unit)

>  <class assignment>
not satisfied

$$$$
>  <compound>
*Oc1ccc(C(=O)c2cccc(NC(=O)CCCCCCCCC(=O)Nc3ccc(C(=O)c4ccc(*)cc4)cc3)c2)cc1 (repeat unit)

>  <class assignment>
satisfied

$$$$
>  <compound>
*Sc1ccc(C(=O)c2ccc(C(c3ccc(C(=O)c4ccc(*)cc4)cc3)(C(F)(F)F)C(F)(F)F)cc2)cc1 (repeat unit)

>  <class assignment>
satisfied

$$$$
>  <compound>
*c1ccc(C(=O)Nc2ccc(-c3cc(Br)ccc3NC(=O)c3ccc(S(*)(=O)=O)cc3)cc2)cc1 (repeat unit)

>  <class assignment>
satisfied

$$$$
